Assay: chemical genetic growth profiling, strain panel (AID 1159580);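 further: tested at 20 µM; growth read once vehicle control cultures reached saturation at 30 °C; 1 = growth at the plate median or of vehicle wells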
Conditions: S. cerevisiae deletion strains, growth OD, locus YKL193C, strain SDS22
Hit rate of the full screen: of about 5,500 compounds, about 2,000 (36%) were called active. Not shown: some 18% with an inconclusive outcome. No stated cut-off is given here; in the data, active means normalized growth mostly below about 0.91 (no sharp cut-off); inconclusive means no clear call, values can overlap the other calls; inactive means mostly above about 0.92. This is one part of the list.
Pick one and only one: active, inactive

Data request: # outcome recorded in this test, key = COC(=O)c1ccc(Oc2c(C(F)(F)F)oc3cc(O)ccc3c2=O)cc1
Data returned: inactive

Data request: # outcome recorded in this test, key = O=C(O)c1cccc2cccc(C(=O)O)c12
Data returned: active

Data request: # outcome recorded in this test, key = N#C/C(=C\c1ccc(C(F)(F)F)cc1)c1ccc(O)cc1
Data returned: inactive

Data request: # outcome recorded in this test, key = CSc1sc(-c2ccn[nH]2)c(-c2ccccc2)c1C#N
Data returned: inactive

Data request: # outcome recorded in this test, key = CCC1(c2ccccc2)OC(c2cc(Cl)cc(Cl)c2O)Nc2ccccc21 (stereo unspecified)
Data returned: inactive

Data request: # outcome recorded in this test, key = CN(C)c1nc(=S)ss1
Data returned: active

Data request: # outcome recorded in this test, key = FC(F)(F)c1ccc(NC(=S)Nc2ccc(C(F)(F)F)cc2Cl)c(Cl)c1
Data returned: inactive

Data request: # outcome recorded in this test, key = O=S(=O)(Nc1cc(-c2cccs2)nn1-c1ccc(I)cc1)c1cccc(F)c1
Data returned: inactive

Data request: # outcome recorded in this test, key = Cc1nc([N+](=O)[O-])cn1CC(=O)c1ccc(Cl)cc1
Data returned: inactive

Data request: # outcome recorded in this test, key = O=C1OC(Nc2ccccc2SCc2ccccc2Cl)c2ccccc21 (stereo unspecified)
Data returned: inactive

Data request: # outcome recorded in this test, key = Oc1ccc(-n2nnnc2SCc2ccc(OC(F)(F)F)cc2)cc1
Data returned: inactive

----------
Experiment: chemical genetic growth profiling, strain panel (AID 1159580)
Details: S. cerevisiae deletion strains, growth OD, locus YDR054C, strain cdc34
Among all 5,500 compounds or so, about 2,000 (36%) were called active. Another 18% or so got no clear call; they are omitted. Cut-off read from the data, not from the text of the source: active = normalized growth mostly below about 0.91 (no sharp cut-off); inconclusive = no clear call, values can overlap the other calls; inactive = mostly above about 0.92. The list shows a part of the results.
Pick one and only one: active, inactive

Data request: # outcome recorded in this test, key = Cc1c(Cl)cccc1N=C1SCC(=O)N1Cc1ccco1
Data returned: inactive

Data request: # outcome recorded in this test, key = Cc1nc(C(F)(F)F)ccc1C(=O)Sc1nnc(-c2ccc(C(F)(F)F)nc2C)o1
Data returned: inactive

Data request: # outcome recorded in this test, key = Fc1ccc(Nc2nc(-c3ccc(F)c(F)c3)cs2)c(F)c1
Data returned: active

Data request: # outcome recorded in this test, key = Cc1nc(C(F)(F)F)ccc1-c1nnc(SC(=O)c2ccc(Cl)cc2)o1
Data returned: active

Data request: # outcome recorded in this test, key = O=C1CSC(=Nc2cc(Cl)cc(Cl)c2)N1Cc1cccnc1
Data returned: inactive

Data request: # outcome recorded in this test, key = N#CC(C#N)=NNc1ccc(-n2ccc(C(F)(F)F)n2)cc1
Data returned: active

Data request: # outcome recorded in this test, key = Nc1ccc(N2CCN(c3ccc(C(F)(F)F)cn3)CC2)nc1
Data returned: inactive

Data request: # outcome recorded in this test, key = N#C/C(=C\c1ccc(C(F)(F)F)cc1)c1ccc(O)cc1
Data returned: inactive

Data request: # outcome recorded in this test, key = CSc1nc(Sc2n[nH]c(-c3ccccc3)n2)cc(Sc2n[nH]c(-c3ccccc3)n2)n1
Data returned: inactive

Data request: # outcome recorded in this test, key = O=C1OC(Nc2ccccc2SCc2ccccc2Cl)c2ccccc21 (stereo not drawn)
Data returned: inactive

Data request: # outcome recorded in this test, key = N#C/C(=N/Nc1ccc(Cl)cc1)C(N)=S
Data returned: active

Data request: # outcome recorded in this test, key = O=C(c1ccc(Cl)cc1)N1CCN(c2ccc(C(F)(F)F)cn2)CC1
Data returned: inactive

Data request: # outcome recorded in this test, key = N#C/C(=N/Nc1ccc(Cl)cc1)C(=O)C1CC1
Data returned: active

----------
Experiment: chemical genetic growth profiling, strain panel (AID 1159580);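 further: tested at 20 µM; growth read once vehicle control cultures reached saturation at 30 °C; 1 = growth at the plate median or of vehicle wells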
Conditions: S. cerevisiae deletion strains, growth OD, locus YAR019C, strain CDC15, stronger effect = lower value
Out of some 5,500 compounds screened, about 2,000 (36%) were called active. Roughly 18% stayed inconclusive and do not appear here. The list shows a part of the results.
PROPERTY MEASURED: normalized growth

Data request: Supply normalized growth value. Item: CCOC(=O)C(NC(C)=O)(Nc1ccc(F)c(Cl)c1)C(F)(F)F (centres undefined)
Data returned: 0.992 (inactive)

Data request: Supply normalized growth value. Item: CC(Oc1ccc(Cl)cc1Cl)C(=O)NNC(=S)Nc1ccccc1 (centres undefined)
Data returned: 0.983 (inactive)

Data request: Supply normalized growth value. Item: O=C1OC(Nc2ccccc2SCc2ccccc2Cl)c2ccccc21 (centres undefined)
Data returned: 0.985 (inactive)

Data request: Supply normalized growth value. Item: CCC1(c2ccccc2)OC(c2cc(Cl)cc(Cl)c2O)Nc2ccccc21 (centres undefined)
Data returned: 0.96 (inactive)

Data request: Supply normalized growth value. Item: Cc1c(NCN2C(=O)CCC2=O)cc2c(c1[N+](=O)[O-])C(C)(C)CC2(C)C
Data returned: 0.963 (inactive)

Data request: Supply normalized growth value. Item: N#C/C(=N/Nc1ccc(Cl)cc1)C(N)=S
Data returned: 0.44 (active)

Data request: Supply normalized growth value. Item: CSc1nc(Sc2n[nH]c(-c3ccccc3)n2)cc(Sc2n[nH]c(-c3ccccc3)n2)n1
Data returned: 1.01 (inactive)

Data request: Supply normalized growth value. Item: CC(NC(=S)Nc1ccc(Oc2ccc(Cl)cc2)cc1)c1ccccc1 (centres undefined)
Data returned: 0.952 (inactive)

Data request: Supply normalized growth value. Item: CCOC(=O)C(O)(c1ccc(NC(=O)Nc2ccc(Cl)cc2)cc1)C(F)(F)F (centres undefined)
Data returned: 0.993 (inactive)

Data request: Supply normalized growth value. Item: Nc1ccc(N2CCN(c3ccc(C(F)(F)F)cn3)CC2)nc1
Data returned: 0.974 (inactive)

Data request: Supply normalized growth value. Item: O=S(=O)(Nc1ccc(-n2nc(C(F)(F)F)cc2-c2cccs2)cc1)c1ccc(F)cc1
Data returned: 0.993 (inactive)

Data request: Supply normalized growth value. Item: N#CC(C#N)=NNc1ccc(-n2ccc(C(F)(F)F)n2)cc1
Data returned: 0.871 (active)

Data request: Supply normalized growth value. Item: Cc1ccc(C(=O)Nc2ccc3ccccc3n2)cc1
Data returned: 0.956 (inactive)

Data request: Supply normalized growth value. Item: N#C/C(=N/Nc1ccc(Cl)cc1)C(=O)C1CC1
Data returned: 0.863 (active)

Data request: Supply normalized growth value. Item: O=S(=O)(Nc1cc(-c2cccs2)nn1-c1ccc(I)cc1)c1cccc(F)c1
Data returned: 0.957 (inactive)

Data request: Supply normalized growth value. Item: Cc1oc(-c2ccc(Cl)cc2)cc1C(=O)N1CCN(c2ccc(C(F)(F)F)cn2)CC1
Data returned: 0.977 (inactive)

Data request: Supply normalized growth value. Item: Cc1nc([N+](=O)[O-])cn1CC(=O)c1ccc(Cl)cc1
Data returned: 0.973 (inactive)

Data request: Supply normalized growth value. Item: CC(C)(C)c1cc(C(=O)/C(C#N)=N\Nc2ccc(Cl)cc2)no1
Data returned: 0.959 (inactive)

Data request: Supply normalized growth value. Item: Fc1ccc(Nc2nc(-c3ccc(F)c(F)c3)cs2)c(F)c1
Data returned: 0.14 (active)

----------
I'd be grateful if you could share measured normalized growth for these entries.
Test: chemical genetic growth profiling, strain panel (AID 1159580);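 further: tested at 20 µM; growth read once vehicle control cultures reached saturation at 30 °C; 1 = growth at the plate median or of vehicle wells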
Settings: S. cerevisiae deletion strains, growth OD, locus YGL086W, strain mad1, stronger effect = lower value
Among all 5,500 compounds or so, about 2,000 (36%) were called active. About 18% were inconclusive and are not listed. Some of the results follow.

Data request: Supply normalized growth value. Item: C[C@]12C=CC(=O)C=C1CCC1C2CC[C@]2(C)C(=O)CCC12 (stereo not given in full)
Data returned: 0.983 (inactive)

Data request: Supply normalized growth value. Item: CCCCC(=O)N(Cc1ccc(-c2ccccc2-c2nn[nH]n2)cc1)[C@H](C(=O)O)C(C)C
Data returned: 0.971 (inactive)

Data request: Supply normalized growth value. Item: CC1=C(C(=O)O)N2C(=O)[C@@H](NC(=O)[C@H](N)C3=CCC=CC3)C2SC1 (stereo not given in full)
Data returned: 0.933 (inactive)

Data request: Supply normalized growth value. Item: CC(C(=O)O)c1ccc(N2Cc3ccccc3C2=O)cc1 (stereo not given)
Data returned: 1.01 (inactive)

Data request: Supply normalized growth value. Item: CN1Cc2c(N)cccc2C(c2ccccc2)C1 (stereo not given)
Data returned: 0.999 (inactive)

----------
Assay: chemical genetic growth profiling, strain panel (AID 1159580);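 further: tested at 20 µM; growth read once vehicle control cultures reached saturation at 30 °C; 1 = growth at the plate median or of vehicle wells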
Conditions: S. cerevisiae deletion strains, growth OD, locus YEL061C, strain CIN8, stronger effect = lower value
Screen size: about 5,500 compounds; about 2,000 (36%) were called active. About 18% were inconclusive and are not listed. Some of the results follow.
I'd be grateful if you could share measured normalized growth for these entries.
Quick one: just the number, no unit, thanks!

Data request: Supply normalized growth value. Item: CC1=CC(C)(C)NC(=S)N1
Data returned: 1.01

Data request: Supply normalized growth value. Item: Cc1ccc(/C(C#N)=C2C=C/C(=N/O)C(Cl)=C\2Cl)cc1
Data returned: 0.959

Data request: Supply normalized growth value. Item: CCCCCc1ccc(S(=O)(=O)Nc2cccnc2Oc2ccc(Cl)cc2)cc1
Data returned: 1

Data request: Supply normalized growth value. Item: CC(=O)O[C@@H]1CC2C(C)(C)C(=O)[C@@H]3O[C@@H]3[C@]2(C)C2CC[C@]3(C)C(=CC(=O)O[C@H]3c3ccoc3)[C@@]21C (stereo not given in full)
Data returned: 0.979

Data request: Supply normalized growth value. Item: CC(=O)/C(=C\N(C)C)Sc1nnc(C(F)(F)F)n1C
Data returned: 1.01
